target: SMARCA2 (Homo sapiens); construct: endogenous in cells; host or cells: HT1080 (CRISPR HiBiT knock-in clone, generated in house); assay: SMARCA2 HiBiT degradation assay (cellular); type: cell-based; conditions: A549, 6 h incubation; Emax = amount of residual protein remaining in the cell following compound treatment; table head names A549
Sequence (P51531 whole entry): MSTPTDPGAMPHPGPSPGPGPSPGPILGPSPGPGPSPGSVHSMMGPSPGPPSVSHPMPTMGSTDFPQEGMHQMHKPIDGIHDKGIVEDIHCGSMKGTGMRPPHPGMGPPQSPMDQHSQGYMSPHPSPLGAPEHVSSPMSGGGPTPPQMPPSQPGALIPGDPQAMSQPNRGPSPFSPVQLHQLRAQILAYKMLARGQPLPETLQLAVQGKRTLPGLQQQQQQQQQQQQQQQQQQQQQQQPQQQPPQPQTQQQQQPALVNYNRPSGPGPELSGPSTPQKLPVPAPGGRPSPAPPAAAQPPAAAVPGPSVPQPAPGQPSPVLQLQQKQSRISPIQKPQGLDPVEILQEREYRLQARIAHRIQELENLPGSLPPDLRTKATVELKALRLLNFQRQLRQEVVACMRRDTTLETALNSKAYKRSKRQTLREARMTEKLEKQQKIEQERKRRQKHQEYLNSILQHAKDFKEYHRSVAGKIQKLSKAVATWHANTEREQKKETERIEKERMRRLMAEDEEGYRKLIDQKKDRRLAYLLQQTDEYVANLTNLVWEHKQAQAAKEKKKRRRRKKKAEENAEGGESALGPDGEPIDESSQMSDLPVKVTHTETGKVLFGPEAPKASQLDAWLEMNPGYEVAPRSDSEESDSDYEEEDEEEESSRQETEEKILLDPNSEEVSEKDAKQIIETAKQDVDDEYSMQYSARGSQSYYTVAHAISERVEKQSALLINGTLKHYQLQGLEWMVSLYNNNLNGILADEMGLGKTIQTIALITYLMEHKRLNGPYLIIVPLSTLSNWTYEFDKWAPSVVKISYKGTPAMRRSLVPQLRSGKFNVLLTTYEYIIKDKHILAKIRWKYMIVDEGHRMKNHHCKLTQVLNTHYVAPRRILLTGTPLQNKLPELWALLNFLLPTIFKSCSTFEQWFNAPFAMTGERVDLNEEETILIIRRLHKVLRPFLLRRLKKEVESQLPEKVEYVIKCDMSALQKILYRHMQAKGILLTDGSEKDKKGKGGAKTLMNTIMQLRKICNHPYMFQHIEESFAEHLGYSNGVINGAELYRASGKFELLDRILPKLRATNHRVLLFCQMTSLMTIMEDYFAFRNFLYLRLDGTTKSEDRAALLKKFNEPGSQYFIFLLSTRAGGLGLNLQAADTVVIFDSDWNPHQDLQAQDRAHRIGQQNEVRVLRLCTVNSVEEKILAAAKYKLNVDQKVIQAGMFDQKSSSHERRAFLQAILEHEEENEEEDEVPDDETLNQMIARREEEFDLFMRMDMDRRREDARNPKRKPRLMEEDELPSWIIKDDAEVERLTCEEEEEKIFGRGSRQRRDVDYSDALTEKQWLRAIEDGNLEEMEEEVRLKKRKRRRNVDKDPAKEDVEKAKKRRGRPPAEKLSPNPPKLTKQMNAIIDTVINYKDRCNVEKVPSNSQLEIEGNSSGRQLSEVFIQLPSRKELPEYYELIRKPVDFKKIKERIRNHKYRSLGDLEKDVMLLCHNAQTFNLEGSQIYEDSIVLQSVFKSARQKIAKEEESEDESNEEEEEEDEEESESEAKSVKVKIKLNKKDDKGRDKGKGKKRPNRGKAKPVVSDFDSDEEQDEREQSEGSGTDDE
Rule: measured Emax below 50% gets y; anything equal to or greater than 50% gets n.

Please review the entries below; each comes with its answer.
Input: Is Emax strictly under 50% for the entry Nc1nnc(-c2ccccc2O)cc1N1CC2CCC(C1)N2c1cccc(OCCN2CCN(CCOC3CCN(c4ccc5c(c4)C(=O)N(C4CCC(=O)NC4=O)C5=O)CC3)CC2)c1 (racemic) ?
Output: y

Input: Is Emax strictly under 50% for the entry Nc1nnc(-c2ccccc2O)cc1N1CCC(C(=O)N2CC3(CCN(CCOC4CCN(c5ccc6c(c5)C(=O)N(C5CCC(=O)NC5=O)C6=O)CC4)C3)C2)(c2ccccc2)CC1 (centres unmarked) ?
Output: y

Continuing:
Input: Is Emax strictly under 50% for the entry Nc1nnc(-c2ccccc2O)cc1N1CC2CCC(C1)N2c1cccc(CN2CCN(C(=O)CCC3CCN(c4ccc5c(c4)C(=O)N(C4CCC(=O)NC4=O)C5=O)CC3)CC2)n1 (racemic) ?
Output: y

Input: Is Emax strictly under 50% for the entry Nc1nnc(-c2ccccc2O)cc1N1CC2CCC(C1)N2c1cccc(OCCN2CCN(C(=O)C3CN(c4ccc5c(c4)C(=O)N(C4CCC(=O)NC4=O)C5=O)C3)CC2)c1 (racemic) ?
Output: y

Input: Is Emax strictly under 50% for the entry Nc1nnc(-c2ccccc2O)cc1N1CCC(OCC(=O)NC2CCN(C(=O)C3CCN(c4ccc5c(c4)C(=O)N(C4CCC(=O)NC4=O)C5=O)CC3)CC2)(c2ccccc2)CC1 (centres unmarked) ?
Output: n

Input: Is Emax strictly under 50% for the entry Nc1nnc(-c2ccccc2O)cc1N1CC2CCC(C1)N2c1cccc(OCCN2CCN(C(=O)CCCCCCCNc3cccc4c3C(=O)N(C3CCC(=O)NC3=O)C4=O)CC2)c1 (racemic) ?
Output: n

Input: Is Emax strictly under 50% for the entry Nc1nnc(-c2ccccc2O)cc1N1CCC(C(=O)N2CC3(CN(CC4CCN(c5ccc6c(c5)C(=O)N(C5CCC(=O)NC5=O)C6=O)CC4)C3)C2)(c2ccccc2)CC1 (centres unmarked) ?
Output: y

Input: Is Emax strictly under 50% for the entry Nc1nnc(-c2ccccc2O)cc1N1CCC(CNC(=O)CCNc2cccc3c2C(=O)N(C2CCC(=O)NC2=O)C3=O)(c2ccccc2)CC1 (centres unmarked) ?
Output: n

Input: Is Emax strictly under 50% for the entry Nc1nnc(-c2ccccc2O)cc1N1CC2CCC(C1)N2c1cccc(OCCN2CCN(C(=O)CN3CCC(c4ccc(OC5CCC(=O)NC5=O)cn4)CC3)CC2)c1 (centres unmarked) ?
Output: n
